Give half-life at 0.2 μM for every item shown.
# Assay Explanation: In vitro skin S9 metabolic stability assay (human)
# Type: in vitro ADME
# Study Conditions: human, s9, pH 7.4
# Method: Assay 6: In Vitro Skin S9 Metabolic Stability Assay The objective of this assay was to assess the metabolic stability of compounds in human and mouse skin S9 sub-fraction. Human and mouse skin S9 sub-fractions obtained from Bioreclamation-IVT (Baltimore, Md.) were thawed on ice and diluted into 0.1M potassium phosphate buffer pH 7.4 to yield final incubation protein concentrations of 1.0 mg/mL. […]

Before answering, review these 4 worked examples.
| Molecule Smiles | half-life at 0.2 μM |
| --- | --- |
| CCCC(=O)OCc1nc(N(C)[C@@H]2C[C@H]3CCC[C@@H](C2)N3S(=O)(=O)CC)nc(Nc2cc(C)[nH]n2)c1F | > 30 min |
| CCS(=O)(=O)N1[C@@H]2CCC[C@H]1C[C@H](N(C)c1nc(COC(C)=O)c(F)c(Nc3cc(C)[nH]n3)n1)C2 | > 30 min |
| CCC(=O)OCc1nc(N(C)[C@@H]2C[C@H]3CCC[C@@H](C2)N3S(=O)(=O)CC)nc(Nc2cc(C)[nH]n2)c1F | > 30 min |
| CCS(=O)(=O)N1[C@@H]2CCC[C@H]1C[C@H](N(C)c1nc(COC(=O)OC3CCCCC3)c(F)c(Nc3cc(C)[nH]n3)n1)C2 | > 30 min |

Let us move to another entry and its half-life at 0.2 μM.
Q) Supply recorded half-life at 0.2 μM for CCCCC(=O)OCc1nc(N(C)[C@@H]2C[C@H]3CCC[C@@H](C2)N3S(=O)(=O)CC)nc(Nc2cc(C)[nH]n2)c1F here.
A) 15 to 30 min
